Every entry's value here was drawn from PubChem BioAssay (NCI).

System: KM12 colon
Protocol Description: NCI tumour cell line growth inhibition, 48 h

>  <Compound>
C=C(c1ccc(C(=O)NCCCn2ccnc2)cc1)c1cc2c(cc1C)C(C)(C)CCC2(C)C

>  <TGI>
> 50.6 µM

$$$$
>  <Compound>
CCOC(=O)/C=C(/OCC)[C@@H]1C(C(=O)c2ccc(Cl)cc2)[C@@H]1/C(=C\C(=O)OCC)OCC (stereo partly specified)

>  <TGI>
> 51.3 µM

$$$$
>  <Compound>
O=C(/C=C/c1ccccn1)c1ccccc1

>  <TGI>
15.5 µM

$$$$
>  <Compound>
CC(C)(C)OC(=O)N1CCC2(CC1)C(=O)NCN2c1ccccc1

>  <TGI>
> 100 µM

$$$$
>  <Compound>
CC(=O)N1CN2C(=O)CCC2c2cc(C)ccc21 (stereo unspecified)

>  <TGI>
> 100 µM

$$$$
>  <Compound>
COc1ccc(S(=O)(=O)NNS(C)(=O)=O)cc1OC

>  <TGI>
> 100 µM

$$$$
>  <Compound>
O=C(Nc1ccc(-n2cc(-c3ccncc3)c(-c3ccc(Cl)c(O)c3)n2)cc1)c1ccc(Cl)c(Cl)c1

>  <TGI>
> 100 µM

$$$$
>  <Compound>
CN(C)CN(C)c1nc(N(C)C)nc(N(C)C)n1

>  <TGI>
> 100 µM

$$$$
>  <Compound>
CC(C)NC(=O)OCCN=C1c2ccccc2C(Br)C(Br)c2ccccc21 (stereo unspecified)

>  <TGI>
45.8 µM

$$$$
>  <Compound>
COC1CCC(OS(C)(=O)=O)C(C)O1 (stereo unspecified)

>  <TGI>
> 10 µM

$$$$
>  <Compound>
O=C(Nc1nnc(-c2ccccc2)o1)C(SC(=S)N1CCCC1)c1ccccc1 (stereo unspecified)

>  <TGI>
> 100 µM

$$$$
>  <Compound>
CCOC(=O)NC(Nc1ccc(C(=O)O)cc1)(C(F)(F)F)C(F)(F)F

>  <TGI>
> 100 µM

$$$$
>  <Compound>
O=c1ccc(=O)c2c1c1[nH]c3ccccc3c1c1c(=O)c3ccccc3c(=O)c21

>  <TGI>
> 10 µM

$$$$
>  <Compound>
Cc1c(-c2ccccc2)oc(=O)c2ccccc12

>  <TGI>
51.9 µM

$$$$
>  <Compound>
CC(=O)O[C@H]1C(=O)[C@@]2(C)C([C@H](OC(=O)c3ccccc3)[C@]3(O)C[C@H](OC(=O)[C@H](O)[C@@H](NC(=O)c4ccc(Cl)cc4)c4ccccc4)C(C)=C1C3(C)C)C1(OC(C)=O)CO[C@@H]1C[C@@H]2O (stereo partly specified)

>  <TGI>
25 µM

$$$$
>  <Compound>
Cn1cc(C2=C(c3cccc([N+](=O)[O-])c3)C(=O)NC2=O)c2ccccc21

>  <TGI>
12.9 µM

$$$$
>  <Compound>
O=c1[nH]c(NCCCCCO)nc2nc[nH]c12

>  <TGI>
> 100 µM

$$$$
>  <Compound>
CCn1c(-c2cc3ccccc3cc2OC(C)=O)n[nH]c1=S

>  <TGI>
> 100 µM

$$$$
>  <Compound>
O=C(CC/C(CC(=O)c1ccc(Cl)cc1)=N\O)Nc1cccc(Cl)c1

>  <TGI>
> 100 µM

$$$$
>  <Compound>
CC(C)(C)C(=O)C(N)C(=O)C(C)(C)C

>  <TGI>
> 100 µM

$$$$
>  <Compound>
O=C(NCCNC1=CC(=O)c2nc3ccccc3c3ccnc1c23)c1cnccn1

>  <TGI>
63.4 µM

$$$$

---

Listing of entries alongside the reported TGI.
Test system: SF-295 CNS
Protocol Description: NCI tumour cell line growth inhibition, 48 h

>  <Compound>
C=C(c1ccc(C(=O)NCCCn2ccnc2)cc1)c1cc2c(cc1C)C(C)(C)CCC2(C)C

>  <Target>
SF-295 CNS

>  <TGI>
18.7 µM

$$$$
>  <Compound>
COc1ccc(C2NC(c3ccc(OC)cc3)C(C)C(=O)C2C)cc1 (configuration not stated)

>  <Target>
SF-295 CNS

>  <TGI>
> 100 µM

$$$$
>  <Compound>
COc1cc(OC)c(OC)cc1/C=C\c1ccnc2ccccc12

>  <Target>
SF-295 CNS

>  <TGI>
3.55 µM

$$$$
>  <Compound>
CC(C)C(Nc1c2ccccc2[n+](C)c2ccccc12)C(=O)O (configuration not stated)

>  <Target>
SF-295 CNS

>  <TGI>
> 100 µM

$$$$
>  <Compound>
Cc1nc2sc(C(=O)Nc3cccc(Cl)c3)c(N)c2cc1C(O)c1ccccc1 (configuration not stated)

>  <Target>
SF-295 CNS

>  <TGI>
13.5 µM

$$$$
>  <Compound>
Clc1ccc(-c2nn3c(COc4ccc(OCc5nnc6sc(-c7ccc(Cl)cc7)nn56)c(Cl)c4)nnc3s2)cc1

>  <Target>
SF-295 CNS

>  <TGI>
> 100 µM

$$$$
>  <Compound>
CCCCCCCCCCCCCCCC[N+](C)(C)CCl

>  <Target>
SF-295 CNS

>  <TGI>
6.06 µM

$$$$
>  <Compound>
C[N+](C)([O-])C12CC3CC(CC(C3)C1)C2

>  <Target>
SF-295 CNS

>  <TGI>
> 100 µM

$$$$
>  <Compound>
Nc1ncnc2c1ncn2CCCNO

>  <Target>
SF-295 CNS

>  <TGI>
> 100 µM

$$$$
>  <Compound>
O=C(N[C@H]1CC2(C=C(I)C(=O)C(I)=C2)OC1=O)OCc1ccccc1

>  <Target>
SF-295 CNS

>  <TGI>
37.3 µM

$$$$
>  <Compound>
Clc1ccc(/C=C/c2csnn2)cc1

>  <Target>
SF-295 CNS

>  <TGI>
> 100 µM

$$$$
>  <Compound>
Cc1cc(C)c(C2=NO[C@@H]3[C@H]2C(=O)C=C2N(Cc4ccccc4)CCO[C@@]23O)c(C)c1

>  <Target>
SF-295 CNS

>  <TGI>
> 100 µM

$$$$
>  <Compound>
C=C1CCC2C(C)(CO)C(O)CCC2(C)C1C/C=C1\C(=O)OCC1O (configuration not stated)

>  <Target>
SF-295 CNS

>  <TGI>
52.5 µM

$$$$
>  <Compound>
Cc1cc(Br)c(O)c(-c2cscn2)c1

>  <Target>
SF-295 CNS

>  <TGI>
> 100 µM

$$$$
>  <Compound>
CCCCCCCCCCCCCCCCOC[C@H](COC(c1ccccc1)(c1ccccc1)c1ccccc1)O[P+](=S)OC (some centres not stated)

>  <Target>
SF-295 CNS

>  <TGI>
> 100 µM

$$$$
>  <Compound>
CN1CCC(C(=O)Nc2n[nH]c3nnc(-c4ccccc4)cc23)CC1

>  <Target>
SF-295 CNS

>  <TGI>
> 25 µM

$$$$
>  <Compound>
COc1ccc(/C=C2\N=C3N(Cc4ccccc4)C=C(N)N3C2=O)cc1

>  <Target>
SF-295 CNS

>  <TGI>
> 100 µM

$$$$
>  <Compound>
O=C(Nc1ccc(-n2cc(-c3ccncc3)c(-c3ccc(Cl)c(O)c3)n2)cc1)c1ccc(Cl)c(Cl)c1

>  <Target>
SF-295 CNS

>  <TGI>
2.77 µM

$$$$
>  <Compound>
CCCCCCCC(=O)OC[n+]1cccc(-c2c(COC(=O)NC(C)C)c(COC(=O)NC(C)C)c3n2CCC3)c1

>  <Target>
SF-295 CNS

>  <TGI>
> 100 µM

$$$$
>  <Compound>
Cn1cc(C2=C(c3cccc([N+](=O)[O-])c3)C(=O)NC2=O)c2ccccc21

>  <Target>
SF-295 CNS

>  <TGI>
> 14 µM

$$$$
>  <Compound>
CC1OC23CCCCC2C(C#N)(C#N)C1(C#N)C(=N)O3 (configuration not stated)

>  <Target>
SF-295 CNS

>  <TGI>
> 100 µM

$$$$
>  <Compound>
Cc1cc(C)n(C(=CC(=O)C(Cl)Cl)n2nc(C)cc2C)n1

>  <Target>
SF-295 CNS

>  <TGI>
31.7 µM

$$$$

---

Tested on: KM12 colon
Protocol Description: NCI tumour cell line growth inhibition, 48 h
Readout: TGI

>  <Compound>
Fc1nc(Sc2ncnc3nc[nH]c23)nc(-c2c3ccccc3c3sc4ccccc4n23)n1

>  <Reported Value>
> 100 µM

$$$$
>  <Compound>
C=C(C)C1CCC2(C)C1CCC1(C)C2CCC2C3(C)C4OC(OC4=O)C(C)(C)C3CCC21C (stereo not drawn)

>  <Reported Value>
> 100 µM

$$$$
>  <Compound>
COc1ccc(N=C2C(=O)Nc3ccc(Br)cc32)cc1

>  <Reported Value>
29.4 µM

$$$$
>  <Compound>
CC1CC(C)(C)CC(OCCN2CCCCC2)(c2ccccc2)C1 (stereo not drawn)

>  <Reported Value>
21.4 µM

$$$$
>  <Compound>
O=C(Nc1c(Cl)cc([N+](=O)[O-])cc1Cl)C(=O)C(C(=O)c1ccncc1)C1OC(=O)c2ccccc21 (stereo not drawn)

>  <Reported Value>
> 100 µM

$$$$
>  <Compound>
COc1cc(/C=C2\C(=O)N(c3ccc(Cl)cc3)C(c3ccccc3)S2(=O)=O)cc(OC)c1OC (stereo not drawn)

>  <Reported Value>
99.3 µM

$$$$
>  <Compound>
Clc1cc(Cl)cc(Nc2ccc3c(OCCCN4CCOCC4)cccc3n2)c1

>  <Reported Value>
4.13 µM

$$$$
>  <Compound>
Cc1cc(C)n(C(=CC(=O)C(Cl)Cl)n2nc(C)cc2C)n1

>  <Reported Value>
24 µM

$$$$
>  <Compound>
FC(F)(Sc1ncccn1)c1nc2ccccc2o1

>  <Reported Value>
> 100 µM

$$$$
>  <Compound>
COc1ccccc1-c1cc(=O)c2cccnc2[nH]1

>  <Reported Value>
> 100 µM

$$$$
>  <Compound>
Fc1cccc(C2ON=C(c3ccccc3)N2C23CC4CC(CC(C4)C2)C3)c1 (stereo not drawn)

>  <Reported Value>
> 10 µM

$$$$
>  <Compound>
Nc1ncnc2c1ncn2C1C(O)C=C(CO)C1O (stereo not drawn)

>  <Reported Value>
> 625 µM

$$$$
>  <Compound>
CCOC(=O)CSc1nc(-c2ccc(Cl)cc2)c(C#N)c(=O)[nH]1

>  <Reported Value>
> 100 µM

$$$$
>  <Compound>
COc1cc(OC)c(OC)cc1/C=C\c1ccnc2ccccc12

>  <Reported Value>
> 67.5 µM

$$$$
>  <Compound>
CN(CC(=O)O)c1ncc2c(n1)-c1ccccc1CC2

>  <Reported Value>
> 100 µM

$$$$
>  <Compound>
Cc1ccccc1NC(=O)C(=O)CC(=O)c1sc(-n2nc(-c3ccccc3)cc2-c2ccccc2)nc1C

>  <Reported Value>
> 100 µM

$$$$
>  <Compound>
Cc1ncc([N+](=O)[O-])n1CCOc1ccc(C(=O)/C=C/c2ccc(C(F)(F)F)cc2)cc1

>  <Reported Value>
4.22 µM

$$$$
>  <Compound>
C=C1CCC2C(C)(CO)C(O)CCC2(C)C1C/C=C1\C(=O)OCC1O (stereo not drawn)

>  <Reported Value>
27.2 µM

$$$$
>  <Compound>
CC1(O)CC23CC(O)C4(O)C(CC(O)C4(C)C)C(C)(O)C2CCC1C3O (stereo not drawn)

>  <Reported Value>
> 100 µM

$$$$
>  <Compound>
COC1=C(OC)C(=O)C(Cc2c(-c3ccccc3)nc3sc(Cl)cn23)=C(C)C1=O

>  <Reported Value>
41 µM

$$$$
>  <Compound>
CC1(c2ccc(Cl)cc2)c2ccccc2C(=O)N1CCCN1C(=O)c2ccccc2C1=O (stereo not drawn)

>  <Reported Value>
50.8 µM

$$$$
>  <Compound>
O=C(CN1CCCC1)Nc1ccc2c(c1)C1Oc3ccccc3CC1CO2 (stereo not drawn)

>  <Reported Value>
> 100 µM

$$$$
>  <Compound>
COc1ccc(C2=NOC3=c4ccccc4=CSC3=C2c2ccccc2)cc1

>  <Reported Value>
> 100 µM

$$$$
